# Lookup of reported log10(IC50) keyed by entry
target: EGFR T790M/L858R kinase domain (Homo sapiens (Human), UniProt P00533, L858R/T790M); test: EGFR enzymatic assay, TR-FRET, EGFR T790M/L858R
Sequence (P00533 669-1210 T790M/L858R): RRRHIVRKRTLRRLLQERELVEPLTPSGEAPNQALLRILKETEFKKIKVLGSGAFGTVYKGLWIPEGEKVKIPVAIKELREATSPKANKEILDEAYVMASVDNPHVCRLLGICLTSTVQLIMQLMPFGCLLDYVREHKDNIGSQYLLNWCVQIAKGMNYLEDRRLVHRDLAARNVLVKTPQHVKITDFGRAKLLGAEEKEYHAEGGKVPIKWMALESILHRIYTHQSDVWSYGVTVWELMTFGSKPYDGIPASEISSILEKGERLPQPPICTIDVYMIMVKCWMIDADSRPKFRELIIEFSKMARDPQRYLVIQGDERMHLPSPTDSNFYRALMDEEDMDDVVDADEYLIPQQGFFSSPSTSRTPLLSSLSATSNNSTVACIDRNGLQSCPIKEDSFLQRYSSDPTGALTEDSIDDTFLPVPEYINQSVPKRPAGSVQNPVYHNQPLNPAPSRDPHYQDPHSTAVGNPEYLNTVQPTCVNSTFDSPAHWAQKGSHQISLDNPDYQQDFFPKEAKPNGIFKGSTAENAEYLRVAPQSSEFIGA
Note the log scale: values are log10 of IC50 expressed in µM.

Previously resolved entries follow.
{"columns": ["compound", "readout", "endpoint.value"],
 "data": [
  ["CN(C)[C@H]1CCCN(c2ccc(C(=O)N[C@@H]3[C@H]4Oc5ccc(Oc6ccnc7c6CCC(=O)N7)cc5[C@@H]34)cc2C(F)(F)F)C1", "log10(IC50)", -2.18],
  ["O=C1CCc2c(Oc3ccc4c(c3)[C@H]3[C@H](NC(=O)c5ccc(C(F)(F)F)cc5)[C@H]3O4)ccnc2N1", "log10(IC50)", -1.08],
  ["CCN1CCC(=Cc2ccc(C(=O)N[C@@H]3[C@H]4Oc5ccc(Oc6ccnc7c6CCC(=O)N7)cc5[C@@H]34)cc2C(F)(F)F)CC1", "log10(IC50)", -3.74]
]}

Q: What log10(IC50) value was documented for this compound, CC(C)(C#N)c1cccc(C(=O)N[C@@H]2[C@H]3Oc4ccc(Oc5ccnc6c5CCC(=O)N6)cc4[C@@H]23)c1 ?
Ans: -1.42

Q: Try this compound too: CC1CN(Cc2ccc(C(=O)N[C@@H]3[C@H]4Oc5ccc(Oc6ccnc7c6CCC(=O)N7)cc5[C@@H]34)cc2C(F)(F)F)CC(C)N1 (stereo partly drawn)
Ans: -1.96

---

target: EGFR L858R kinase domain (Homo sapiens (Human), UniProt P00533, L858R); test: EGFR enzymatic assay, TR-FRET, EGFR L858R; format: biochemical
Sequence (P00533 669-1210 L858R): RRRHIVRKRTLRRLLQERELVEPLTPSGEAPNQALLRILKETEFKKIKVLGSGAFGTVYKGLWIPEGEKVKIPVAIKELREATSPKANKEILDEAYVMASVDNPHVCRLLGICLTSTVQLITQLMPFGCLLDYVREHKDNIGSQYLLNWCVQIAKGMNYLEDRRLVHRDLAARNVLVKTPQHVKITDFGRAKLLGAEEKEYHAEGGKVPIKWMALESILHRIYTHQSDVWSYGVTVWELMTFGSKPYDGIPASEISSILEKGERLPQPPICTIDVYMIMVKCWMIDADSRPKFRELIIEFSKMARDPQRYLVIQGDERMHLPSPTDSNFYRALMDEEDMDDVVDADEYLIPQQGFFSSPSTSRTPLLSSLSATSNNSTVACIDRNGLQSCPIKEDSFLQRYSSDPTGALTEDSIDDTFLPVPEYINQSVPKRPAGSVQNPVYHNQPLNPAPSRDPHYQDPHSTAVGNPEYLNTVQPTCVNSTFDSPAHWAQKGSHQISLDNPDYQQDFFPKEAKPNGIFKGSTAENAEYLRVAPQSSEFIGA
readout: IC50 (nM)
State just the number; it will be interpreted in nM.

Q: What IC50 value was documented for this molecule, CCCCCCCCCCCC(=O)N[C@@H]1[C@H]2Oc3ccc(Oc4ccnc5c4CCC(=O)N5)cc3[C@@H]12 ?
Ans: 287

---

target: WT EGFR kinase domain (Homo sapiens (Human)); assay: EGFR enzymatic assay, TR-FRET, WT EGFR; format: biochemical
Sequence (P00533 669-1210): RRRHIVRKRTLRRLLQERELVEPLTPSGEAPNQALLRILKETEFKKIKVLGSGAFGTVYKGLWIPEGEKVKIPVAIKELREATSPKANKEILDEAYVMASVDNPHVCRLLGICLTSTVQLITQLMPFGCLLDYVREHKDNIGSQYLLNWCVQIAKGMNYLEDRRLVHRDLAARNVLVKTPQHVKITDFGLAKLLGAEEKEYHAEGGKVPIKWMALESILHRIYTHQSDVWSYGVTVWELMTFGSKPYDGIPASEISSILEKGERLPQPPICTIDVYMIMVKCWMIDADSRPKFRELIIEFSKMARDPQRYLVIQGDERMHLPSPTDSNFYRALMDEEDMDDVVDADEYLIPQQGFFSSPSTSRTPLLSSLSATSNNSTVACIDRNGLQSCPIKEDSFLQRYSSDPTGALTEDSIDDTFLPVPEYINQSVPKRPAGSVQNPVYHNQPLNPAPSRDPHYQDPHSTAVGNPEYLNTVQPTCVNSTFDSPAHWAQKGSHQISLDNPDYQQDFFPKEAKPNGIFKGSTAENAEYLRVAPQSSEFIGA
readout: log10(IC50) (log10 of the value in nM)
Note the log scale: values are log10 of IC50 expressed in nM.

Previously resolved entries follow.
{"columns": ["molecule", "endpoint.value"],
 "data": [
  ["CCCCCCC(=O)N[C@@H]1[C@H]2Oc3ccc(Oc4ccnc5c4CCC(=O)N5)cc3[C@@H]12", 1.99],
  ["CCN1CCN(Cc2ccc(C(=O)N[C@@H]3[C@H]4Oc5ccc(Oc6ccnc7c6CNC(=O)N7)cc5[C@@H]34)cc2C(F)(F)F)CC1", -0.37],
  ["O=C(/C=C/c1cccc(C(F)(F)F)c1)N[C@@H]1[C@H]2Oc3ccc(Oc4ccnc5c4CCC(=O)N5)cc3[C@@H]12", 2.83],
  ["CN(C)[C@@H]1CCCN(c2ccc(C(=O)N[C@@H]3[C@H]4Oc5ccc(Oc6ccnc7c6CCC(=O)N7)cc5[C@@H]34)cc2C(F)(F)F)C1", 0.23],
  ["CC(C)(C#N)c1cccc(C(=O)N[C@@H]2[C@H]3Oc4ccc(Oc5ccnc6c5CCC(=O)N6)cc4[C@@H]23)c1", 1.11]
]}

Q: What log10(IC50) value was documented for this molecule, Cc1cc(C(=O)N[C@@H]2[C@H]3Oc4ccc(Oc5ccnc6c5CCC(=O)N6)cc4[C@@H]23)ccc1CO ?
Ans: 1.28

Q: Try this molecule too: CN1CCN(Cc2ccc(C(=O)N[C@@H]3[C@H]4Oc5ccc(Oc6ccnc7c6CCC(=O)N7)cc5[C@@H]34)cc2C(F)(F)F)CC1
Ans: -0.15

Q: Try this molecule too: CCN1CCN(Cc2ccc(C(=O)N[C@@H]3[C@H]4Oc5ccc(Oc6ccnc7c6CCC(=O)N7)cc5[C@@H]34)cc2F)CC1
Ans: 0.15

Q: Try this molecule too: O=C1CCc2c(Oc3ccc4c(c3)[C@H]3[C@H](NC(=O)c5ccc(F)c(F)c5)[C@H]3O4)ccnc2N1
Ans: 1.77

Q: Try this molecule too: O=C1CCc2c(Oc3ccc4c(c3)[C@H]3[C@H](NC(=O)c5ccc(C(F)(F)F)cc5)[C@H]3O4)ccnc2N1
Ans: 1.11

Q: Try this molecule too: CN1CCN(Cc2ccc(C(=O)N[C@H]3[C@@H]4Oc5ccc(Oc6ccnc7c6CCC(=O)N7)cc5[C@H]34)cc2C(F)(F)F)CC1
Ans: 2.40

Q: Try this molecule too: O=C1CCc2c(Oc3ccc4c(c3)[C@H]3[C@H](NC(=O)c5cccc(F)c5)[C@H]3O4)ccnc2N1
Ans: 1.88

Q: Try this molecule too: CCN1CCC(Oc2ccc(C(=O)N[C@@H]3[C@H]4Oc5ccc(Oc6ccnc7c6CCC(=O)N7)cc5[C@@H]34)cc2C(F)(F)F)CC1
Ans: 0.04

Q: Try this molecule too: O=C1CCc2c(Oc3ccc4c(c3)[C@H]3[C@H](NC(=O)c5cccc(C(F)(F)F)n5)[C@H]3O4)ccnc2N1
Ans: 3.06

Q: Try this molecule too: CC1CN(Cc2ccc(C(=O)N[C@@H]3[C@H]4Oc5ccc(Oc6ccnc7c6CCC(=O)N7)cc5[C@@H]34)cc2C(F)(F)F)CC(C)N1 (stereo partly drawn)
Ans: 0.28

Q: Try this molecule too: O=C1CCc2c(Oc3ccc4c(c3)[C@H]3[C@H](NC(=O)c5ccc(CN6CCN(CC(F)(F)F)CC6)c(C(F)(F)F)c5)[C@H]3O4)ccnc2N1
Ans: 2.40

Q: Try this molecule too: CNC(=O)c1cc(Oc2ccc3c(c2)[C@H]2[C@H](NC(=O)c4ccc(CN5CCN(C)CC5)c(C(F)(F)F)c4)[C@H]2O3)ccn1
Ans: 0.83

Q: Try this molecule too: CN1CCN(Cc2ccc(C(=O)N[C@@H]3[C@H]4Oc5ccc(Oc6ccnc7c6CNC(=O)N7)cc5[C@@H]34)cc2C(F)(F)F)CC1
Ans: -0.17

Each recorded value in this set is attributed to patent US9670231B2.
